- ASSAY_OVERVIEW: in vitro
- ASSAY_SETUP: human, hela cells, % viability
ASSAY_METRIC: viability at 28.5 h, 10 µM
# do not omit the unit; it follows the number

Consider the reported viability at 28.5 h, 10 µM for these compounds:
# COMPOUND, viability at 28.5 h, 10 µM
data = [
    ("CC(C)COC(=O)n1ccc(C(=O)N2CCCCC2)n1", "84.9%"),
    ("COc1ccc(CCNC(=O)c2ncoc2-c2cccs2)cc1", "103%"),
    ("Cc1nccn1CC1CCCN(Cc2nc3ccccc3[nH]2)C1 (stereo not shown)", "83.3%"),
    ("Cn1c(SCC(=O)N2CCN(c3ccccc3)CC2)nc2cc(Cl)ccc21", "99.7%"),
    ("O=C(Cc1ccc(Cl)c(Cl)c1)N1CCN(C(=O)c2ccco2)CC1", "95.2%"),
]

# per-item lookup of viability at 28.5 h, 10 µM; items listed below
1. O=C(N1CCCCCC1)N1CCN(S(=O)(=O)N2CCOCC2)CC1
2. O=C(NCc1ccccc1)N1CCC(n2cnc3cccnc32)CC1
3. O=C(Nc1ccc(Oc2cccnc2)cc1)C1CCCN1 (stereo not shown)
4. Cn1c(=O)c(-c2nc3ccccc3[nH]2)c(O)c2ccccc21
5. CC(=O)NC[C@H]1CN(c2ccc3c(c2)CCN(C(C)=O)CC3)C(=O)O1
6. C[C@H](NC(=O)C1CCN(C(=O)OC(C)(C)C)CC1)C(=O)O
7. O=C(O)CSc1nc2ccccc2n2cnnc12

1: 105%; 2: 100%; 3: 110%; 4: 92.7%; 5: 86.6%; 6: 78.9%; 7: 92.8%

Indicate its recorded viability at 28.5 h, 10 µM; the compound in question is `Cc1cc(C)c2c(c1)cc(C)c1nn(CC(=O)N3CCCC3)c(=O)n12` 85.5%

====

- ASSAY_OVERVIEW: in vitro
- ASSAY_SETUP: human, hela cells, % viability
ASSAY_METRIC: viability at 28.5 h, 10 µM (%)
One number for each entry, in %.

Consider the reported viability at 28.5 h, 10 µM for these compounds:
# COMPOUND, READOUT_UNIT, viability at 28.5 h, 10 µM
measured = [
    ("COc1ccc(Cl)cc1NS(=O)(=O)N(C)C", "%", 90.6),
    ("Cn1c(=O)n(CC(=O)NCc2ccccc2F)c2cccnc21", "%", 88.1),
]

# per-item lookup of viability at 28.5 h, 10 µM; items listed below
1. O=C1CCc2cc(S(=O)(=O)Nc3cccc(-c4ccc(F)cc4)c3)ccc2N1
2. O=C(Nc1cc(Oc2ccc(F)cc2)cc(Oc2cccnc2)c1)c1nn2c(C(F)(F)F)cc(-c3cccs3)nc2c1Cl
3. Clc1cc2nc(SCCc3cnccn3)c(N3CCCC3)nc2cc1Cl
4. CCOC(=O)CC1C(=O)NCCN1Cc1cccc(C)n1 (centres unmarked)
5. O=C(Nc1cccc2c1CCCC2)c1cnc2n(c1=O)CCS2
6. O=c1[nH]c2cc(Cl)c(Br)nc2[nH]1
7. CNC(=O)c1cnc(SC)nc1NCCc1c[nH]c2ccccc12
8. CC(C)C(C(=O)Nc1ccc(S(=O)(=O)Nc2nccs2)cc1)N1C(=O)c2ccccc2C1=O (centres unmarked)

1. 102
2. 93.1
3. 93.1
4. 101
5. 105
6. 76.9
7. 104
8. 107

# per-item lookup of viability at 28.5 h, 10 µM; items listed below
1. OCc1cccc(-c2cncc(Nc3ccccc3)n2)c1
2. COc1ccc(CSc2nnc(-c3ccco3)n2N)cc1

1. 97.4
2. 90.3

# per-item lookup of viability at 28.5 h, 10 µM; items listed below
1. CCCS(=O)(=O)N1CCCC(Cc2ccccc2C)(C(=O)OCC)C1 (centres unmarked)
2. CCc1cc(C(=O)OC)c(NC(=O)CC2NCCNC2=O)s1 (centres unmarked)

[84.9, 97.6]

====

Record form. Attribute: viability at 28.5 h, 10 µM. Fill in for each entry.
- ASSAY_OVERVIEW: in vitro
- ASSAY_SETUP: human, hela cells, % viability
Answers are plain numbers, in %.

# COMPOUND, READOUT_UNIT, TEST_RESULT
rows = [
    ("COc1ccc(-c2nc3c(c(=S)[nH]2)CCCC3)cc1", "%", 99.2),
    ("CCC(=O)NC(=S)Nc1ccc(C(=O)N2CCCC2)cc1", "%", 108),
    ("Cc1c(C(=O)O)sc(S(=O)(=O)N2CCN(C(=O)CC3CCCC3)CC2)c1C(=O)O", "%", 101),
    ("COc1ccc(CN2CCN(c3nccnc3OC3CCCCC3)CC2)cc1 [CBK082830T]", "%", 115),
    ("O=C(c1ccccc1)N1C[C@@H]2CCCCN(Cc3cccnc3)[C@@H]2C1", "%", 98.7),
]

# per-item lookup of viability at 28.5 h, 10 µM; items listed below
1. O=C(CCc1cccnc1)NC1CCCC1
2. OCCN1CCN(c2ncnc3scc(-c4ccccc4)c23)CC1
3. CC(C)c1nsc(NCCc2nnc3n2CCCC3)n1
4. COc1cccc(C(=O)N2CCCC2c2cc3cccnc3[nH]2)c1 (stereo not drawn)

1: 97.9; 2: 94.6; 3: 92.4; 4: 96.4

====

- ASSAY_OVERVIEW: in vitro
- Parameters: Viability of infected HeLa host cells, resazurin conversion, bulk resorufin fluorescence relative to DMSO
- ASSAY_SETUP: human, hela cells; bulk resorufin, mean of 3
viability at 28.5 h, 0.000416667 µM less than 90% is Yes; viability at 28.5 h, 0.000416667 µM greater than or equal to 90% is No.

# MOLECULE, CLASS_LABEL
measured = [
    ("CC(Cc1nc(-c2nccn2C)cs1)n1cc(Cl)cn1 (stereo not shown) [c14e]", "No"),
    ("CCC(c1ccc(F)cc1)N(C)C(=O)Cn1cc(C(=O)NC2CCCCC2)ccc1=O (stereo not shown) [c44e]", "No"),
    ("O=C1Oc2nc3ccccc3cc2CN1C1CC1 [c1e]", "No"),
    ("CCCN(CCC)CCc1cccc2c1CCN2C(=O)c1cc2ccccc2s1 [c15e]", "Yes"),
]

viability at 28.5 h, 0.000416667 µM under 90%? Item: Oc1c(CN2CCN(c3ccc(F)cc3)CC2)cc(Br)c2cccnc12 [c43e] No

viability at 28.5 h, 0.000416667 µM under 90%? Item: CN(C(=O)c1ccc(Cl)c(Cl)c1)[C@H]1CCC[C@H]1N1CCCC1 [c12e] No

====

- ASSAY_OVERVIEW: in vitro
- ASSAY_SETUP: human, hela cells, % viability
ASSAY_METRIC: viability at 28.5 h, 10 µM
# do not omit the unit; it follows the number

# MOLECULE, TEST_RESULT
measured = [
    ("CCCc1cnc(N2CCOCC2)nc1", "89%"),
    ("CCCCn1nc(C2CC2)nc1-c1cnn2cc(C)cnc12", "89.6%"),
    ("c1ccc2c(-c3cn4ccnc4c(N4CCOCC4)n3)cccc2c1", "91.6%"),
    ("Cc1cccc(C)c1-c1cn2ccnc2c(N2CCN(c3ccccn3)CC2)n1", "89%"),
    ("O=C(NCc1ccc2c(c1)OCO2)c1ccc2c(c1)C(=O)N(Cc1cccnc1)C2=O", "89.3%"),
]

# per-item lookup of viability at 28.5 h, 10 µM; items listed below
1. CCCc1nc(NC(CC)c2nc(C)c(C)s2)c2cnn(C)c2n1 (centres unmarked)
2. COc1ccc(C2C(C(=O)c3ccccc3)=C(O)C(=O)N2CCN(C)C)cc1OC (centres unmarked)
3. c1cnc(N2CCCC2)c(OCc2ccsc2)n1

["89.1%", "119%", "92.2%"]

# per-item lookup of viability at 28.5 h, 10 µM; items listed below
1. CN(C)CCCC(=O)Nc1cccc2[nH]ccc12
2. O=C(c1cc(F)c(F)cc1F)N1CCC2(CCN(Cc3cc(=O)[nH]c(=O)[nH]3)C2)C1 (centres unmarked)
3. COC(=O)c1ccc(COc2nc3ccccc3nc2/C=C/c2cccc([N+](=O)[O-])c2)cc1

1. 99.9%
2. 91.4%
3. 112%

====

- ASSAY_OVERVIEW: in vitro
- ASSAY_SETUP: human, hela cells, % viability
ASSAY_METRIC: viability at 28.5 h, 10 µM (%)
Answers are plain numbers, in %.

# per-item lookup of viability at 28.5 h, 10 µM; items listed below
1. CC(Oc1ccc(Br)cc1Cl)C(=O)NCCCN1CCCC1=O (stereo not drawn) [CBK268138]
2. O=C(NCCNc1cnccn1)c1cc(Br)ccc1F [CBK253480]
3. CC(C)Nc1nccnc1Sc1cccc2ccccc12 [CBK089493]
4. CC(C)(C)C(=O)NC(=S)NNC(=O)c1ccncc1 [CBK269304]

[98.7, 110, 100, 90.6]

# per-item lookup of viability at 28.5 h, 10 µM; items listed below
1. O=C(NCCc1cccs1)Nc1cc(Cl)nc(Cl)c1 [CBK043762]
2. O=C(CN(c1ccc(F)cc1)S(=O)(=O)c1ccccc1)Nc1ccc2c(c1)OCCO2 [CBK265215]

1. 87.2
2. 94.8

# per-item lookup of viability at 28.5 h, 10 µM; items listed below
1. COc1ccccc1C(=O)N1CCN(Cc2cc(OC)c(O)c(OC)c2)CC1 [CBK263484]
2. O=C(CCC(=O)c1ccc(Cl)cc1)OCC(=O)c1cccc(I)c1 [CBK264760]
3. O=C(NCCS(=O)(=O)c1ccccc1)c1cnc(-c2ccc(Cl)cc2)c(-c2ccco2)c1 [CBK037546]

101
89.9
96.4

Origin of measurements: paper PMC12040169
